- System: FRMPD2-2 (Homo sapiens, UniProt Q68DX3)
- Sequence (Q68DX3 whole entry): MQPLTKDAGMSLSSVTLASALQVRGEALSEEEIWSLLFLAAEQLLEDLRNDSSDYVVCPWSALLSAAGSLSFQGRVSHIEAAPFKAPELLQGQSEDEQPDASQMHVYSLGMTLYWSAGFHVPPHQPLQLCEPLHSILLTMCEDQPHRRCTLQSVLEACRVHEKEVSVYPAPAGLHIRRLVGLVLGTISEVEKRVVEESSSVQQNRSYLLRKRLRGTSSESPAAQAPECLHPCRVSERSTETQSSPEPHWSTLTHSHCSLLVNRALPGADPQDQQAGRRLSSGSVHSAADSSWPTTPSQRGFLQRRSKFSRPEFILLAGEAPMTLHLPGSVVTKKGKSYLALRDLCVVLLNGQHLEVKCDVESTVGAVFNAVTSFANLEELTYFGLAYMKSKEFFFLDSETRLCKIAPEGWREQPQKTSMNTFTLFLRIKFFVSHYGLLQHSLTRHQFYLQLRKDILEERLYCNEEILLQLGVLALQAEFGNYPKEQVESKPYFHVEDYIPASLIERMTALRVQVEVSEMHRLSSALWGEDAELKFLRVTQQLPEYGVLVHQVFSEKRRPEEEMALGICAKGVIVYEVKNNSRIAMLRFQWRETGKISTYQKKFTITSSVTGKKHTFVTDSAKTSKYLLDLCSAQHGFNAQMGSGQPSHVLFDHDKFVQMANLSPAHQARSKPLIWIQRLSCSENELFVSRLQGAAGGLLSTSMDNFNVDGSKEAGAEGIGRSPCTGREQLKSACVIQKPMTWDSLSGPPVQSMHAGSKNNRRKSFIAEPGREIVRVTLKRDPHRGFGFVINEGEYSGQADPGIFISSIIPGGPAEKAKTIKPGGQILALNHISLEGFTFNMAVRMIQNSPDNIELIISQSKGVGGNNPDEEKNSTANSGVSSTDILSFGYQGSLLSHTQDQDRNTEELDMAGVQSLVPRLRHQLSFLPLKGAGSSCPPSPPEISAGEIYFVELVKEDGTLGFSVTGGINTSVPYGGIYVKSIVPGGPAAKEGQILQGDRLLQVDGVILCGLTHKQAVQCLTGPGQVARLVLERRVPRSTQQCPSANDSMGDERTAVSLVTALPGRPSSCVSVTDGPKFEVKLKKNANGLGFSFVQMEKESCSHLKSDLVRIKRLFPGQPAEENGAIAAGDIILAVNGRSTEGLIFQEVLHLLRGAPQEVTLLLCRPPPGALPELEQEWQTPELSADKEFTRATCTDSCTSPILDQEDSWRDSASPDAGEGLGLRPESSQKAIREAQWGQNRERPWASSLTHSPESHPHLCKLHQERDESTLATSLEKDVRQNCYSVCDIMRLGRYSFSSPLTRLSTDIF
*1 amine or outer side, *2 acyl side, *3 side chain or, on linkers, in order; H or OH if unused. Where a SMILES comes first, the peptide text is derived from it. The star is where a group is joined. X1 = O=C(CCCC[C@@H]1SC[C@@H]2NC(=O)N[C@@H]21)NCCCOCCOCCOCCCN*; Suc = O=C(CCC(=O)[*:2])[*:1]
Can you tell me Kd for the items I'm about to list?

Parameters: items (list). Returns: Kd for each item.
1. CC[C@H](C)[C@H](NC(=O)[C@H](CCC(N)=O)NC(=O)[C@@H](NC(=O)[C@H](Cc1c[nH]cn1)NC(=O)[C@H](CCC(N)=O)NC(=O)[C@H](CC(=O)O)NC(=O)[C@H](CCC(=O)O)NC(=O)[C@H](CC(=O)O)NC(=O)CCC(=O)NCCCOCCOCCOCCCNC(=O)CCCC[C@@H]1SC[C@@H]2NC(=O)N[C@@H]21)[C@@H](C)O)C(=O)N[C@H](C(=O)N[C@@H](CCCCN)C(=O)N[C@H](C(=O)O)C(C)C)[C@@H](C)O
2. CC[C@H](C)[C@H](NC(=O)[C@H](CCC(N)=O)NC(=O)[C@@H](NC(=O)[C@H](Cc1c[nH]cn1)NC(=O)[C@H](CCC(N)=O)NC(=O)[C@H](CC(=O)O)NC(=O)[C@H](CCC(=O)O)NC(=O)[C@H](CC(=O)O)NC(=O)CCC(=O)NCCCOCCOCCOCCCNC(=O)CCCC[C@@H]1SC[C@@H]2NC(=O)N[C@@H]21)[C@@H](C)O)C(=O)N[C@H](C(=O)N[C@@H](CCCNC(=N)N)C(=O)N[C@H](C(=O)O)C(C)C)[C@@H](C)O [PTEN_KR] ({X1-Suc}-DEDQHTQITRV-OH)
3. CC[C@H](C)[C@H](NC(=O)[C@H](CCC(N)=O)NC(=O)[C@@H](NC(=O)[C@H](Cc1c[nH]cn1)NC(=O)[C@H](CCC(N)=O)NC(=O)[C@H](CC(=O)O)NC(=O)[C@H](CCC(=O)O)NC(=O)[C@H](CC(=O)O)NC(=O)CCC(=O)NCCCOCCOCCOCCCNC(=O)CCCC[C@@H]1SC[C@@H]2NC(=O)N[C@@H]21)[C@@H](C)O)C(=O)N[C@H](C(=O)N[C@@H](CCCCNC(C)=O)C(=O)N[C@H](C(=O)O)C(C)C)[C@@H](C)O
4. CC[C@H](C)[C@H](NC(=O)[C@H](CCC(N)=O)NC(=O)[C@@H](NC(=O)[C@H](Cc1c[nH]cn1)NC(=O)[C@H](CCC(N)=O)NC(=O)[C@H](CC(=O)O)NC(=O)[C@H](CCC(=O)O)NC(=O)[C@H](CC(=O)O)NC(=O)[C@H](Cc1ccccc1)NC(=O)[C@@H]1CCCN1C(=O)CCC(=O)NCCCOCCOCCOCCCNC(=O)CCCC[C@@H]1SC[C@@H]2NC(=O)N[C@@H]21)[C@@H](C)O)C(=O)N[C@H](C(=O)N[C@@H](CCCCN)C(=O)N[C@H](C(=O)O)C(C)C)[C@@H](C)O [PTEN_13] ({X1-Suc}-PFDEDQHTQITKV-OH)

["80 µM", "56.9 µM", "19.1 µM", "46.9 µM"]

====

- System: DFNB31-3 (Homo sapiens)
- Sequence (Q9P202 whole entry): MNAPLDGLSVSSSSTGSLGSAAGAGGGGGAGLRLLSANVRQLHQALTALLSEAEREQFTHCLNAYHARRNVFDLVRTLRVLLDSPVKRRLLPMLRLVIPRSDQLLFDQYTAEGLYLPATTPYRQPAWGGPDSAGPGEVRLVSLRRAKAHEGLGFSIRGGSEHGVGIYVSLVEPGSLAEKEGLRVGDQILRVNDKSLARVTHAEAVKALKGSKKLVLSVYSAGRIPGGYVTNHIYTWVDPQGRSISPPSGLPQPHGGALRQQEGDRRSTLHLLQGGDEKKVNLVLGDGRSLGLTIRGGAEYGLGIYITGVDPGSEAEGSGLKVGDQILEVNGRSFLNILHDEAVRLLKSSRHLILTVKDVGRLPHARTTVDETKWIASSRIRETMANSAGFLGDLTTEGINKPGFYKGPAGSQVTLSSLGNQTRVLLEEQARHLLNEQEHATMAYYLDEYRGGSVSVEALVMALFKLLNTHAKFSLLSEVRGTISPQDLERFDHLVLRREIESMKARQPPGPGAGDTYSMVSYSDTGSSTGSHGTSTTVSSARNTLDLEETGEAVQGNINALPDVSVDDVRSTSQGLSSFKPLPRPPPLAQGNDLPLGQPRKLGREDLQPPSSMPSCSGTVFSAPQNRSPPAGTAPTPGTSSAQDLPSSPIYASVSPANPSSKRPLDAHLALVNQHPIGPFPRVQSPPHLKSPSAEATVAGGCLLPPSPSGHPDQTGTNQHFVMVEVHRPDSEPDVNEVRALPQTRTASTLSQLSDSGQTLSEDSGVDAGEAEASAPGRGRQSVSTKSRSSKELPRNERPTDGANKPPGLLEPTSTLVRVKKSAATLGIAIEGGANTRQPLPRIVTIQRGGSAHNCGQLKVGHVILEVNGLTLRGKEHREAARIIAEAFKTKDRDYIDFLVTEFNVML
- Assay text: Holdup assay, DFNB31-3
- Assay type: binding
*1 amine or outer side, *2 acyl side, *3 side chain or, on linkers, in order; H or OH if unused. Where a SMILES comes first, the peptide text is derived from it. The star is where a group is joined. X1 = O=C(CCCC[C@@H]1SC[C@@H]2NC(=O)N[C@@H]21)NCCCOCCOCCOCCCN*; Suc = O=C(CCC(=O)[*:2])[*:1]
Reported property: BI
Numbers only.

molecule="CC[C@H](C)[C@H](NC(=O)[C@H](CCC(N)=O)NC(=O)[C@@H](NC(=O)[C@H](Cc1c[nH]cn1)NC(=O)[C@H](CCC(N)=O)NC(=O)[C@H](CC(=O)O)NC(=O)[C@H](CCC(=O)O)NC(=O)[C@H](CC(=O)O)NC(=O)CCC(=O)NCCCOCCOCCOCCCNC(=O)CCCC[C@@H]1SC[C@@H]2NC(=O)N[C@@H]21)[C@@H](C)O)C(=O)N[C@H](C(=O)N[C@@H](CCCCNC(C)=O)C(=O)N[C@H](C(=O)O)C(C)C)[C@@H](C)O [PTEN_Ac]" value=0.275

Parameters: items (list). Returns: BI for each item.
1. CC[C@H](C)[C@H](NC(=O)[C@H](CCC(N)=O)NC(=O)[C@@H](NC(=O)[C@H](Cc1c[nH]cn1)NC(=O)[C@H](CCC(N)=O)NC(=O)[C@H](CC(=O)O)NC(=O)[C@H](CCC(=O)O)NC(=O)[C@H](CC(=O)O)NC(=O)[C@H](Cc1ccccc1)NC(=O)[C@@H]1CCCN1C(=O)CCC(=O)NCCCOCCOCCOCCCNC(=O)CCCC[C@@H]1SC[C@@H]2NC(=O)N[C@@H]21)[C@@H](C)O)C(=O)N[C@H](C(=O)N[C@@H](CCCCN)C(=O)N[C@H](C(=O)O)C(C)C)[C@@H](C)O [PTEN_13] ({X1-Suc}-PFDEDQHTQITKV-OH)
2. CC[C@H](C)[C@H](NC(=O)[C@H](CCC(N)=O)NC(=O)[C@@H](NC(=O)[C@H](Cc1c[nH]cn1)NC(=O)[C@H](CCC(N)=O)NC(=O)[C@H](CC(=O)O)NC(=O)[C@H](CCC(=O)O)NC(=O)[C@H](CC(=O)O)NC(=O)CCC(=O)NCCCOCCOCCOCCCNC(=O)CCCC[C@@H]1SC[C@@H]2NC(=O)N[C@@H]21)[C@@H](C)O)C(=O)N[C@H](C(=O)N[C@@H](CCCCN)C(=O)N[C@H](C(=O)O)C(C)C)[C@@H](C)O [PTEN_11]

[0.061, 0.089]

Give recorded BI with DFNB31-3 (Homo sapiens) for the following molecule: CC[C@H](C)[C@H](NC(=O)[C@H](CCC(N)=O)NC(=O)[C@@H](NC(=O)[C@H](Cc1c[nH]cn1)NC(=O)[C@H](CCC(N)=O)NC(=O)[C@H](CC(=O)O)NC(=O)[C@H](CCC(=O)O)NC(=O)[C@H](CC(=O)O)NC(=O)CCC(=O)NCCCOCCOCCOCCCNC(=O)CCCC[C@@H]1SC[C@@H]2NC(=O)N[C@@H]21)[C@@H](C)O)C(=O)N[C@H](C(=O)N[C@@H](CCCNC(=N)N)C(=O)N[C@H](C(=O)O)C(C)C)[C@@H](C)O [PTEN_KR] ({X1-Suc}-DEDQHTQITRV-OH) -0.014

====

- System: INADL-8 (Homo sapiens, UniProt Q8NI35)
- Sequence (Q8NI35 whole entry): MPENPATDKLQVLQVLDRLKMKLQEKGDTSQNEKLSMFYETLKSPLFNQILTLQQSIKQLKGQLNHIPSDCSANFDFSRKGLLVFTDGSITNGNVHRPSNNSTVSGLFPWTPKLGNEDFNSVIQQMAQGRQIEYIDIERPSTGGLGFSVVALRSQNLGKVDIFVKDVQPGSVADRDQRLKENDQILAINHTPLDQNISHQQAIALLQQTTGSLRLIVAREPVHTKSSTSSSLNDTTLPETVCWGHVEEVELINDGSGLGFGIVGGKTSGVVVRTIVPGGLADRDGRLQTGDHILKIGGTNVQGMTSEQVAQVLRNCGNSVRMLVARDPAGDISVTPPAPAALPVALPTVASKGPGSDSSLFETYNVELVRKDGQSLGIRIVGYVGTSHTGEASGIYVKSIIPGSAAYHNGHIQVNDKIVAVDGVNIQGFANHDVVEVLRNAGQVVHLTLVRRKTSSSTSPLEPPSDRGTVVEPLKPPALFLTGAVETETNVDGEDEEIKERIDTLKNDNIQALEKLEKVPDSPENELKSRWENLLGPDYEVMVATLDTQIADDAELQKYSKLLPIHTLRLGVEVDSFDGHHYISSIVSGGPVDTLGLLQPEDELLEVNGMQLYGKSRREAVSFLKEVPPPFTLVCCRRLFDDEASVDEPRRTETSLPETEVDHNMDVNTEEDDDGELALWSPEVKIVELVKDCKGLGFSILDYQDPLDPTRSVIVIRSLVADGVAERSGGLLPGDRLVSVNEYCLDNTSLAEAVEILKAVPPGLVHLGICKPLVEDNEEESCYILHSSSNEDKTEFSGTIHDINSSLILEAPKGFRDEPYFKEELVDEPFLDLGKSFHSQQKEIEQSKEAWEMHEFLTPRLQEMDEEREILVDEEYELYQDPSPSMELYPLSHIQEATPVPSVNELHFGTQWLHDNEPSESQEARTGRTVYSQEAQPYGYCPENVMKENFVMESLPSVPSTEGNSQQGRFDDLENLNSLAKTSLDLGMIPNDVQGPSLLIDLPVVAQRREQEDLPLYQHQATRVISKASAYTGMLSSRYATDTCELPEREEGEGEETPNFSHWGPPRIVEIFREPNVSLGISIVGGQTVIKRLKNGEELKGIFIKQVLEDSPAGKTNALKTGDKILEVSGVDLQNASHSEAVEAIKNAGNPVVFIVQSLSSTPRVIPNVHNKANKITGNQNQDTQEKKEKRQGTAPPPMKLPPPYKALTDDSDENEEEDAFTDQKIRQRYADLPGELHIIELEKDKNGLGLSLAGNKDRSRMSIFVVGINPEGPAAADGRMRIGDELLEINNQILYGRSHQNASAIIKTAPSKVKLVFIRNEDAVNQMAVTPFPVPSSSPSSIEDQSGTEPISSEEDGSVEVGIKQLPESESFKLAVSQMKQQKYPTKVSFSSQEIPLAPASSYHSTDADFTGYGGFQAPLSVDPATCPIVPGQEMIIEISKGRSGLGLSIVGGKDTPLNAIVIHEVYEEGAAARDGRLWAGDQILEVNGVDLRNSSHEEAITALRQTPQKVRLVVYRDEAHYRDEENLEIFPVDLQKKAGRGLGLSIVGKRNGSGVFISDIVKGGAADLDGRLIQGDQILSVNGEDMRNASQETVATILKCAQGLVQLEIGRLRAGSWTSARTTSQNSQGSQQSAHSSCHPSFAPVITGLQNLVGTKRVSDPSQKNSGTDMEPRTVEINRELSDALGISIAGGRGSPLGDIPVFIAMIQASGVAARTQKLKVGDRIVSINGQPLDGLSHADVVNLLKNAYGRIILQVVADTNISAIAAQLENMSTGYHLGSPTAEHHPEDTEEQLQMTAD
- Assay text: Holdup assay, INADL-8
- Assay type: binding
*1 amine or outer side, *2 acyl side, *3 side chain or, on linkers, in order; H or OH if unused. Where a SMILES comes first, the peptide text is derived from it. The star is where a group is joined. X1 = O=C(CCCC[C@@H]1SC[C@@H]2NC(=O)N[C@@H]21)NCCCOCCOCCOCCCN*; Suc = O=C(CCC(=O)[*:2])[*:1]
Reported property: BI
Answers are plain numbers.

Sample answers from the record:
compound="CC[C@H](C)[C@H](NC(=O)[C@H](CCC(N)=O)NC(=O)[C@@H](NC(=O)[C@H](Cc1c[nH]cn1)NC(=O)[C@H](CCC(N)=O)NC(=O)[C@H](CC(=O)O)NC(=O)[C@H](CCC(=O)O)NC(=O)[C@H](CC(=O)O)NC(=O)CCC(=O)NCCCOCCOCCOCCCNC(=O)CCCC[C@@H]1SC[C@@H]2NC(=O)N[C@@H]21)[C@@H](C)O)C(=O)N[C@H](C(=O)N[C@@H](CCCCNC(C)=O)C(=O)N[C@H](C(=O)O)C(C)C)[C@@H](C)O [PTEN_Ac]" reported_property=BI value=0.509
compound="CC[C@H](C)[C@H](NC(=O)[C@H](CCC(N)=O)NC(=O)[C@@H](NC(=O)[C@H](Cc1c[nH]cn1)NC(=O)[C@H](CCC(N)=O)NC(=O)[C@H](CC(=O)O)NC(=O)[C@H](CCC(=O)O)NC(=O)[C@H](CC(=O)O)NC(=O)[C@H](Cc1ccccc1)NC(=O)[C@@H]1CCCN1C(=O)CCC(=O)NCCCOCCOCCOCCCNC(=O)CCCC[C@@H]1SC[C@@H]2NC(=O)N[C@@H]21)[C@@H](C)O)C(=O)N[C@H](C(=O)N[C@@H](CCCCN)C(=O)N[C@H](C(=O)O)C(C)C)[C@@H](C)O [PTEN_13] ({X1-Suc}-PFDEDQHTQITKV-OH)" reported_property=BI value=0.247
compound="CC[C@H](C)[C@H](NC(=O)[C@H](CCC(N)=O)NC(=O)[C@@H](NC(=O)[C@H](Cc1c[nH]cn1)NC(=O)[C@H](CCC(N)=O)NC(=O)[C@H](CC(=O)O)NC(=O)[C@H](CCC(=O)O)NC(=O)[C@H](CC(=O)O)NC(=O)CCC(=O)NCCCOCCOCCOCCCNC(=O)CCCC[C@@H]1SC[C@@H]2NC(=O)N[C@@H]21)[C@@H](C)O)C(=O)N[C@H](C(=O)N[C@@H](CCCCN)C(=O)N[C@H](C(=O)O)C(C)C)[C@@H](C)O [PTEN_11]" reported_property=BI value=0.388

Please examine the following record next.
Can you share its BI? I mean this compound: CC[C@H](C)[C@H](NC(=O)[C@H](CCC(N)=O)NC(=O)[C@@H](NC(=O)[C@H](Cc1c[nH]cn1)NC(=O)[C@H](CCC(N)=O)NC(=O)[C@H](CC(=O)O)NC(=O)[C@H](CCC(=O)O)NC(=O)[C@H](CC(=O)O)NC(=O)CCC(=O)NCCCOCCOCCOCCCNC(=O)CCCC[C@@H]1SC[C@@H]2NC(=O)N[C@@H]21)[C@@H](C)O)C(=O)N[C@H](C(=O)N[C@@H](CCCNC(=N)N)C(=O)N[C@H](C(=O)O)C(C)C)[C@@H](C)O [PTEN_KR] ({X1-Suc}-DEDQHTQITRV-OH) 0.532
